Molecular target: T1, Human Nectin-4 (human, UniProt Q96NY8 32-349, limits assumed)
T1 construct: Protein immobilised on the SPR chip; also called target protein
T1 sequence: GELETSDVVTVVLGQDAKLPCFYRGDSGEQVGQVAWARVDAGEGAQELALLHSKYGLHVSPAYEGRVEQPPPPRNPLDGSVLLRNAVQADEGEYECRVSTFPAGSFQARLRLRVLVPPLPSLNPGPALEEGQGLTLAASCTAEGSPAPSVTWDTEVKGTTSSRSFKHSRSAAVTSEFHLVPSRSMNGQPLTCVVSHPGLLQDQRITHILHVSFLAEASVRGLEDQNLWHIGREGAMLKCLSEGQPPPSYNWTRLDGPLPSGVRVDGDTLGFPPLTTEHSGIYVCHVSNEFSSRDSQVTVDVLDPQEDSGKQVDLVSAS
Test: Table 2B (DELFIA or SPR)
pKd: −log10 of the molar value. Bridges are numbered along the chain shown (N, C = ends). Primed or numbered codes have the meaning given here. Where no end group is shown, it is not given here. [ ]: non-standard residue; d: D form. The star is where a group is joined. Biotin = O=C1N[C@H]2[C@H](CS[C@H]2CCCCC(=O)*)N1; hydroxy‑norleucine = hydroxy-norleucine residue; PEG4″ = 4(ethylene glycol)
Examples of binders with documented pKd follow.
endpoint: pKd

{Biotin-PEG4″}-CEYDEEFFTALARLRGGDICYYIQA[hydroxy‑norleucine]FQYLPGLCIEEILDNLGCS-OH (designed binder, disulfide 1-34, 20-44) [C173] | 8.30
{Biotin-PEG4″}-CEYDEQFFTALKALRGGDICYYIQASFNYLPDLCIEEILDNLGCS (designed binder, disulfide 1-34, 20-44) [C115] | 8.19
